- Measurement target: T1, Human Notch4-NRR domain Fc fusion protein (human, UniProt Q99466 1046-1445, limits assumed)
- T1 construct: Expressed in a CHO cell line, used from culture supernatant; 1 is named; also called Human Notch4-NRR Fusion Protein; not shown: Fc
- T1 sequence: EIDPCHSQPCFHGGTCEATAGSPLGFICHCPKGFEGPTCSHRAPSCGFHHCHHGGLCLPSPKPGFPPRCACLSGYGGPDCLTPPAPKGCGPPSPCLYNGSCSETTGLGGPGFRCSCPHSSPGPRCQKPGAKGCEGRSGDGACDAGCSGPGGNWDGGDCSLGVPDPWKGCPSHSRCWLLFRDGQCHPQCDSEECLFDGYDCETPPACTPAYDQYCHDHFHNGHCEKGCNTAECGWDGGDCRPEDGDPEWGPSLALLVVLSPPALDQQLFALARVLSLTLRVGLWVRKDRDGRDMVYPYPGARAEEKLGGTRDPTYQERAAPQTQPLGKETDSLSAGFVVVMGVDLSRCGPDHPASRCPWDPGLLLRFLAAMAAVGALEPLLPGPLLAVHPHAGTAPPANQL
- Measurement notes: SPR (Biacore) as for Table 30; Notch4-NRR-Fc captured, antibody injected; averaged, N=4
- Procedure: Kinetic analysis of further anti-Notch4 inhibitory humanized antibodies was carried out as follows. Human Notch4-NRR domain Fc fusion proteins were expressed with a CHO cell line. The antigen in the culture supernatant was captured by the anti-human Notch4 antibody fixed on a CM5 sensor chip that recognizes different epitopes of human Notch4. […] The interaction and disassociation constants thereof were calculated according to manufacturer's instructions.
Readout label: koff (s⁻¹)
Lab book: enter the figure in s⁻¹, no units written.

// worked examples, koff included
HA2L2 (antibody, human IgG2, kappa, V domains shown, Humanized IgG2 (V234A, G237A)/κ; also called No. 27) VH: EVQLVESGGGLVQPGGSLRLSCAASGFTFSSYGMSWVRQAPGKGLELVSTINSNGGRTYYANSVKGRFTISRDNSKNTLYLQMGSLRAEDMAVYYCARDQGFAYWGQGTLVTVSS VL: DIQMTQSPSSLSASVGDRVTITCKASQDVGTAVAWYQQKPGKVPKLLIYWASTRHTGVPSRFSGSGSGTDFTLTISSLQPEDVATYFCQQYSSYPWTFGQGTKVEIKR: 0.00222
HA2L1 (antibody, human IgG2, kappa, V domains shown, Humanized IgG2 (V234A, G237A)/κ; also called No. 26) VH: EVQLVESGGGLVQPGGSLRLSCAASGFTFSSYGMSWVRQAPGKGLELVSTINSNGGRTYYANSVKGRFTISRDNSKNTLYLQMGSLRAEDMAVYYCARDQGFAYWGQGTLVTVSS VL: DIQMTQSPSSLSASVGDRVTITCKASQDVGTAVAWYQQKPGKVPKLLIYWASTRHTGVPSRFSGSGSGTDFTLTISSLQPEDVATYYCQQYSSYPWTFGQGTKVEIKR: 0.00166

Note: attention shifts to another entry.
Just so you know, measured koff for HK2L1 (antibody, human IgG2, kappa, V domains shown, Humanized IgG2 (V234A, G237A)/κ; also called No. 11) VH: EVQLVESGGGLVQPGGSLRLSCAASGFTFSSYGMSWVRQAPGKGLELVSTINSNGGRTYYPDSVKGRFTISRDNSKNTLYLQMGSLRAEDMAVYYCARDQGFAYWGQGTLVTVSS VL: DIQMTQSPSSLSASVGDRVTITCKASQDVGTAVAWYQQKPGKVPKLLIYWASTRHTGVPSRFSGSGSGTDFTLTISSLQPEDVATYYCQQYSSYPWTFGQGTKVEIKR came out at 0.0016
